Sourced from ChEMBL document CHEMBL3885861

species on record: Rattus norvegicus; test: Open TG-GATES - Regimen: Daily Repeat; format: toxicity, organism-based, Sprague-Dawley; parameters: regimen Daily Repeat, gender Male, age 6 weeks; conditions: in vivo, po, 300 mg/kg, […], tissue Blood, route gavage, dose level Middle, time 28 day
property: MCV (fL)

>>> print(df.to_string())
                                   compound  property  recorded_measurement
0  CCN1CCCC1CNC(=O)c1cc(S(N)(=O)=O)ccc1OC (centres undefined) [SULPIRIDE]       MCV                  56.1
1  O=C(N[C@H](CO)[C@H](O)c1ccc([N+](=O)[O-])cc1)C(Cl)Cl [CHLORAMPHENICOL]       MCV                  57.8
2   CC(C)(S)[C@@H](N)C(=O)O [PENICILLAMINE]       MCV                  55.4
3                   O=C(O)c1cccnc1 [NIACIN]       MCV                    56

###

Entries annotated with measured MCV
organism: Rattus norvegicus; experiment: Open TG-GATES - Regimen: Daily Repeat; assay type: toxicity, organism-based, Sprague-Dawley; set-up: regimen Daily Repeat, gender Male, age 6 weeks; conditions: in vivo, po, 0 mg/kg, […], tissue Blood, route gavage, dose level Control, time 28 day
property: MCV (fL)

>>> df
                                    compound  property  recorded_measurement
 0         CC(=O)Oc1cc(C(C)C)c(OCCN(C)C)cc1C       MCV                  54.7
 1  CCN1CCCC1CNC(=O)c1cc(S(N)(=O)=O)ccc1OC (stereo unspecified) [SULPIRIDE]       MCV                  55.6
 2  CCC(C)(C)C(=O)O[C@H]1C[C@@H](C)C=C2C=C[C@H](C)[C@H](CC[C@@H]3C[C@@H](O)CC(=O)O3)[C@H]21       MCV                  57.8
 3                            O=C(O)c1cccnc1       MCV                  56.6
 4  C[C@]12CCC(=O)C=C1CC[C@@H]1[C@@H]2CC[C@@]2(C)[C@H]1CC[C@]2(C)O       MCV                  55.9
 5  CC(C)C(=O)Nc1ccc([N+](=O)[O-])c(C(F)(F)F)c1 [FLUTAMIDE]       MCV                  56.8
 6          Nc1nc(N)c2nc(-c3ccccc3)c(N)nc2n1       MCV                  56.5
 7                         Oc1ncnc2[nH]ncc12       MCV                  57.6
 8                      CN1C(=O)OC(C)(C)C1=O       MCV                  57.1
 9           C[C@](N)(Cc1ccc(O)c(O)c1)C(=O)O       MCV                    56
10                       CCSCC[C@H](N)C(=O)O       MCV                  55.9
11                   CC(=N)S [THIOACETAMIDE]       MCV                    58
12  O=C(N[C@H](CO)[C@H](O)c1ccc([N+](=O)[O-])cc1)C(Cl)Cl       MCV                  58.3
13                   CC(C)(S)[C@@H](N)C(=O)O       MCV                    58
14     CCc1oc2ccccc2c1C(=O)c1cc(I)c(O)c(I)c1       MCV                  57.7
15  C#C[C@]1(O)CC[C@H]2[C@@H]3CCc4cc(O)ccc4[C@H]3CC[C@@]21C       MCV                  57.3
